- target-entity: Aminopeptidase N (Plasmodium falciparum (isolate 3D7))
- test-name: malaria alanyl aminopeptidase activity blockers – biochemical, fluorogenic H-Leu-NHMec substrate, 1536-well (AID 1445);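 further: plate controls were DMSO full reaction for no effect and no enzyme background for full effect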
- run-parameters: recombinant M1AAP, H-Leu-NHMec fluorogenic kinetic assay; at 30 µM, hits give high values unless noted
The whole screen tested about 220,000 compounds, of which about 910 (0.41%) were called active. This is one part of a sample in which actives are shown more often than they occur. Results with a measured potency or affinity are listed apart.
result-type: inhibition (%)
Answers are plain numbers, in %.

### Prompt Please report inhibition with Aminopeptidase N (Plasmodium falciparum (isolate 3D7)) for item "N/C(=N\OC(=O)CCn1cccc(C(F)(F)F)c1=O)c1ccc(Cl)cc1" .
### Response -1.85

### Prompt Please report inhibition with Aminopeptidase N (Plasmodium falciparum (isolate 3D7)) for item "COc1ccccc1NC(=O)c1ccc(-n2cncn2)nc1" .
### Response 18.8

### Prompt Please report inhibition with Aminopeptidase N (Plasmodium falciparum (isolate 3D7)) for item CCOC(=O)C1=NN(c2ccccc2)C2=NC(C)=C(C(=O)OC)C(c3ccc(C)cc3)N12 (stereo not drawn) .
### Response 8.08

### Prompt Please report inhibition with Aminopeptidase N (Plasmodium falciparum (isolate 3D7)) for item "CCN(CC)Cc1c(O)c(Cl)cc2c3c(c(=O)oc12)CCCC3" .
### Response 9.62

### Prompt Please report inhibition with Aminopeptidase N (Plasmodium falciparum (isolate 3D7)) for item COc1cc(O)c(C(CCN2CCCC(C)C2)c2ccc(N(C)C)cc2)c(OC)c1 (stereo not drawn) .
### Response 12.5

### Prompt Please report inhibition with Aminopeptidase N (Plasmodium falciparum (isolate 3D7)) for item "N#Cc1cc2c(nc1SCc1ccccc1)CCC2" .
### Response -3.56

### Prompt Please report inhibition with Aminopeptidase N (Plasmodium falciparum (isolate 3D7)) for item "Cc1ccc(NC(=O)CN(C)CC(=O)Nc2ccccc2Oc2ccccc2)cc1" .
### Response -4.16

### Prompt Please report inhibition with Aminopeptidase N (Plasmodium falciparum (isolate 3D7)) for item "Clc1ccc(-c2nc(-c3cc4cc(Cl)ccc4o3)cs2)cc1" .
### Response 2.11

Go through the items and report each one's inhibition.
1. Cc1ncc(CO)c(/C=N/NC(=S)Nc2ccc(C(C)C)cc2)c1O
2. O=C(Nc1ccc2nc(-c3ccccn3)[nH]c2c1)C1CCCCC1
3. O=[N+]([O-])c1ccc(C[n+]2cc(-c3ccccc3)n3c2CCCCC3)cc1
4. CC(C)N(C(=O)CSc1nnc(Cc2ccc3c(c2)OCO3)n1C)C(C)C
5. Cc1noc(NS(=O)(=O)c2ccc(NC(=O)CCN3C(=O)c4ccccc4C3=O)cc2)c1C
6. Cc1cc(NS(=O)(=O)c2ccc(NC(=O)C(C)N3C(=O)c4ccccc4C3=O)cc2)nc(C)n1 (stereo not drawn)

### Response
[9.46, -0.77, -1.78, -1.85, 12.8, 2.55]

Go through the items and report each one's inhibition.
1. CCOC(=O)c1ccc(NC(=O)CNS(=O)(=O)c2ccccc2)cc1
2. CC(=O)c1cccc(NC(=O)N2CCCC2C(=O)Nc2cc(C)ccc2C)c1 (stereo not drawn)
3. CC(C)CC(C(=O)NCc1ccccn1)N1C(=O)c2ccccc2C1=O (stereo not drawn)
4. Cc1oc2c(CN3CCCC3)c(O)ccc2c(=O)c1-c1ccccc1
5. CN1CCc2c(sc(NC(=O)c3ccc(S(=O)(=O)N4CCc5ccccc54)cc3)c2C(N)=O)C1
6. O=C(NCCCc1ccccc1)c1cc([N+](=O)[O-])ccc1Cl
7. Cc1oc2c(CN3CCCC3)c(O)ccc2c(=O)c1-c1ccc(Br)cc1

### Response
1: 2.05; 2: -1.28; 3: 13.1; 4: 9.3; 5: 5.03; 6: 3.08; 7: 17.5

Go through the items and report each one's inhibition.
1. COc1ccc(Oc2c(C)oc3c(CN(C)C)c(O)ccc3c2=O)cc1
2. Cc1noc(NS(=O)(=O)c2ccc(NC(=O)c3ccc(N4C(=O)c5ccccc5C4=O)cc3)cc2)c1C

### Response
1. 2.59
2. -1.13

* * *

- target-entity: Aminopeptidase N (Plasmodium falciparum (isolate 3D7)) (UniProt O96935)
- Sequence (O96935 whole entry, looked up): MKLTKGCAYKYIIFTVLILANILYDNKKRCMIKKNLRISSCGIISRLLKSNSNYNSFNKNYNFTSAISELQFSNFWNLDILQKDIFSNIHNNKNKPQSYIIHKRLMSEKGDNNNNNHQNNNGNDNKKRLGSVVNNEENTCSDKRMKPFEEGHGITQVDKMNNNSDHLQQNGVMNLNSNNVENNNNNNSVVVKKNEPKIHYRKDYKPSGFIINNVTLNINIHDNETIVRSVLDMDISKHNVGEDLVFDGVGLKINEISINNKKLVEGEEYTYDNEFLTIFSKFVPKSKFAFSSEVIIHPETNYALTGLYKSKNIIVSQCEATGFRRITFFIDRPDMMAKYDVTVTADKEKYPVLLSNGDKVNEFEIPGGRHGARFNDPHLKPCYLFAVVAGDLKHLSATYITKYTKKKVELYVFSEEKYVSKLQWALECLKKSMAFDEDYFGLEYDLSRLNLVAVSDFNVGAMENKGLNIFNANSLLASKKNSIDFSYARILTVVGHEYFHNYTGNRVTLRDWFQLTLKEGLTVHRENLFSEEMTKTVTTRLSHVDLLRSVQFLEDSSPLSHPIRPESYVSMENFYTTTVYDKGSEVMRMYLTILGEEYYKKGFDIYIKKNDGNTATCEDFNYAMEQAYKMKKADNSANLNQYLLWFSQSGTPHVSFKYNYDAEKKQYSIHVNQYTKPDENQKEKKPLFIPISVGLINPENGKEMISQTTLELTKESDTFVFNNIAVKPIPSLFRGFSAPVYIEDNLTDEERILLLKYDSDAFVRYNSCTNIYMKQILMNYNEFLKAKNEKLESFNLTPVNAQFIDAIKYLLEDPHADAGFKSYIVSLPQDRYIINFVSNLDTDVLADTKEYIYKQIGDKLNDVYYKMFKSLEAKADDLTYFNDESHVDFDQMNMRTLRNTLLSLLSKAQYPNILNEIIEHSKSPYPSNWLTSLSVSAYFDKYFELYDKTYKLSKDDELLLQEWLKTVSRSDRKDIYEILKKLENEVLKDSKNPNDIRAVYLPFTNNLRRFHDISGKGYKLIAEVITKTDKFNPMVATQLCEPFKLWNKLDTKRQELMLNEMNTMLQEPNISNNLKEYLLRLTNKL
- test-name: malaria alanyl aminopeptidase activity blockers – biochemical, fluorogenic H-Leu-NHMec substrate, 1536-well (AID 1445);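 further: plate controls were DMSO full reaction for no effect and no enzyme background for full effect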
- run-parameters: recombinant M1AAP, H-Leu-NHMec fluorogenic kinetic assay; at 30 µM, hits give high values unless noted
In all, about 220,000 compounds went through this assay and about 910 (0.41%) were called active. What follows is part of a selection rich in actives, with near analogues and random picks from the rest. Entries with a potency or affinity are not part of this list.
result-type: inhibition (%)
Answers are plain numbers, in %.

Use these answered entries as a reference point.
### Prompt Please report inhibition with Aminopeptidase N (Plasmodium falciparum (isolate 3D7)) (UniProt O96935) for item "Cc1ccc(SCCC(=O)Nc2ccccc2C(=O)N2CCOCC2)cc1" .
### Response -3.27

### Prompt Please report inhibition with Aminopeptidase N (Plasmodium falciparum (isolate 3D7)) (UniProt O96935) for item "Cc1cc(C(=O)COC(=O)c2ccc(N)c([N+](=O)[O-])c2)c(C)n1-c1ccc2c(c1)OCO2" .
### Response 4.88

### Prompt Please report inhibition with Aminopeptidase N (Plasmodium falciparum (isolate 3D7)) (UniProt O96935) for item "CCOC(=O)c1ccccc1NC(=O)Cn1c(-c2nonc2N)nc2ccccc21" .
### Response -0.93

Now for the compound whose inhibition we want.
### Prompt Please report inhibition with Aminopeptidase N (Plasmodium falciparum (isolate 3D7)) (UniProt O96935) for item "CC(C)N(C)C1CCN(C(=O)Nc2ccc(Cl)c(Cl)c2)CC1" .
### Response 6.97

* * *

- target-entity: Aminopeptidase N (Plasmodium falciparum (isolate 3D7))
- test-name: malaria alanyl aminopeptidase activity blockers – biochemical, fluorogenic H-Leu-NHMec substrate, 1536-well (AID 1445);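 further: plate controls were DMSO full reaction for no effect and no enzyme background for full effect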
- run-parameters: recombinant M1AAP, H-Leu-NHMec fluorogenic kinetic assay; at 30 µM, hits give high values unless noted
Hit rate of the full screen: of about 220,000 compounds, about 910 (0.41%) were called active. For the sample, actives were picked, then their nearest neighbours and some compounds at random. Measured potencies and affinities stand elsewhere.
Record form. Attribute: inhibition. Fill in for each entry.
Answers are plain numbers, in %.

### Prompt Quick one: give measured inhibition for "Cc1cc([N+](=O)[O-])ccc1NC(=S)NC(=O)Cc1ccccc1"
### Response 23.7

### Prompt Quick one: give measured inhibition for "Cc1ccc(-c2csc3ncn(CC(=O)N4CCOCC4)c(=O)c23)cc1C"
### Response 16.1

Go through the items and report each one's inhibition.
1. O=[N+]([O-])c1ccccc1/C=N/N1CCN(c2ccc(Cl)cc2)CC1
2. C=C1CCN([C@H](C(=O)NCc2ccco2)C(C)C)S(=O)(=O)c2ccccc21
3. NC(=S)N/N=C/c1ccc(-c2ccc([N+](=O)[O-])cc2)o1

### Response
1.05
11
-0.83

* * *

- target-entity: Aminopeptidase N (Plasmodium falciparum (isolate 3D7)) (UniProt O96935)
- test-name: malaria alanyl aminopeptidase activity blockers – biochemical, fluorogenic H-Leu-NHMec substrate, 1536-well (AID 1445);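 further: plate controls were DMSO full reaction for no effect and no enzyme background for full effect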
- run-parameters: recombinant M1AAP, H-Leu-NHMec fluorogenic kinetic assay; at 30 µM, hits give high values unless noted
Hit rate of the full screen: of about 220,000 compounds, about 910 (0.41%) were called active. For the sample, actives were picked, then their nearest neighbours and some compounds at random. Results with a measured potency or affinity are listed apart.
Record form. Attribute: inhibition. Fill in for each entry.
One number for each entry, in %.

### Prompt Please report inhibition with Aminopeptidase N (Plasmodium falciparum (isolate 3D7)) (UniProt O96935) for item "COc1nnc(-c2ccc(N3CCOCC3)c(NC(C)=O)c2)c2ccccc12" .
### Response 4.98

### Prompt Please report inhibition with Aminopeptidase N (Plasmodium falciparum (isolate 3D7)) (UniProt O96935) for item "Cc1c(Cc2ccccc2)c(=O)oc2c(O)c(O)ccc12" .
### Response 17.1

### Prompt Please report inhibition with Aminopeptidase N (Plasmodium falciparum (isolate 3D7)) (UniProt O96935) for item "COc1ccc(Cl)cc1C(=O)NNC(=O)c1nc2nc(C)cc(C)n2n1" .
### Response 0.99

### Prompt Please report inhibition with Aminopeptidase N (Plasmodium falciparum (isolate 3D7)) (UniProt O96935) for item "CCOC(=O)c1[nH]cnc1C(=O)Nc1ccc(C)cc1" .
### Response 2.53

Go through the items and report each one's inhibition.
1. COC(=O)c1ccc(OS(=O)(=O)N(C)C)cc1
2. CCOc1cc(/C=N/NS(=O)(=O)c2ccccc2)ccc1OS(=O)(=O)c1ccc(C)cc1

### Response
-0.39
14.5

Go through the items and report each one's inhibition.
1. COc1ccc(OC)c(NC(=S)NCc2cccnc2)c1
2. COc1ccc(NC(=O)C2C3C=CC(C3)C2C(=O)NCc2ccco2)cc1 (centres undefined)

### Response
4.71
4.82

### Prompt Please report inhibition with Aminopeptidase N (Plasmodium falciparum (isolate 3D7)) (UniProt O96935) for item O=C(O)C1C2C=CC(C2)C1C(=O)NCc1ccccn1 (centres undefined) .
### Response -0.69
